Reported INHIBITION is given for each of the following molecules.
Test system: Plasmodium berghei
RUN DESCRIPTION: Screen against P. berghei liver stage (PbLuc), transformed with Luciferase, at 10uM
Format: functional, HepG2
STUDY CONDITIONS: tested at 10 uM
About 8,600 (12%) of roughly 69,000 compounds showed an effect of 50% or more. Many of the other results were omitted from the sample, so strong results are more common in it than they were.
# unit: % | format: bare number

// below: answered molecules
Cc1csc2c(N3CCNC(C(=O)N4CCCC4)C3)ncnc12 (stereo unspecified)
-10.1
CS(=O)(=O)N1CCc2ccc(C(=O)N3CCn4ncnc4C3)cc21
-4.68

Look up INHIBITION for this molecule: Cc1csc2c(N3CCNC(C(=O)Nc4ccc(F)cc4)C3)ncnc12 (stereo unspecified)
62.8

Also need O=C(c1ccncc1)N1C[C@H]2CC[C@@H](C1)N(S(=O)(=O)c1cccnc1)C2 , thanks.
-66.4

What about this molecule? Cc1csc2c(N3CCNC(C(=O)NCc4cccnc4)C3)ncnc12 (stereo unspecified)
16.9

Let us now turn to CS(=O)(=O)N1CCC(c2cnc(-c3cn[nH]c3)cn2)CC1
28.9

----------
System: Plasmodium berghei
RUN DESCRIPTION: Screen against P. berghei liver stage (PbLuc), transformed with Luciferase, at 10uM
Assay type: functional, HepG2
STUDY CONDITIONS: tested at 10 uM
The campaign covered roughly 69,000 compounds. About 8,600 (12%) showed an effect of 50% or more. Many of the other results were omitted from the sample, so strong results are more common in it than they were.
Entry flag: T if INHIBITION reaches -10%; F if it does not.

Below, 5 molecules whose answers are already recorded.
Cc1csc(N2CCC(CCN3CCCC3=O)CC2)n1
F
CC(C)(C)S(=O)(=O)CCNC(=O)c1ccc2cc[nH]c2c1
F
c1ccc(-n2ncc(CN3CCCC3Cn3cccn3)n2)cc1 (stereo unspecified)
T
COCC(=O)NCc1cc(=O)n2c(n1)CN(Cc1ccccc1)CCC2
T
CCn1nc(C)c2nc(C(C)C)nc(NC)c21
T

Would you say O=C1CCC(C(=O)N2CCOC(Cc3ccc(F)cc3)C2)=NN1 (stereo unspecified) shows INHIBITION at minimum -10%?
F

----------
Test system: Plasmodium berghei
RUN DESCRIPTION: Screen against P. berghei liver stage (PbLuc), transformed with Luciferase, at 10uM
Type: functional, HepG2
STUDY CONDITIONS: tested at 10 uM
Among all 69,000 compounds or so, about 8,600 (12%) showed an effect of 50% or more. The list comes from a sample in which strong results are over-represented; it also holds close analogues and randomly drawn compounds.
Could you label it T if measured INHIBITION is 40% or higher, and F otherwise?

Would you please look over these solved cases?
O=C1NCC2(CCC(C(=O)N3CCCC(O)C3)CC2)Oc2ccccc21 (stereo not given)
F
Cc1ccccc1N1CCN(C(=O)c2cnc(N(C)C)nc2C)C(C)C1 (stereo not given)
F
Cc1n[nH]c(C2CN(C(=O)c3cc(C4CC4)on3)CCO2)n1 (stereo not given)
T
CCS(=O)(=O)NC(CCSC)C(=O)Nc1ccc(C)cc1C (stereo not given)
F
Cc1ccccc1N1CCCN(c2ccncn2)CC1
T

Textbook exercise: given the entry C1CCC(c2nnc3sc(C4CCCO4)nn23)C1 (stereo not given) , state whether its INHIBITION is greater than or equal to 40%.
T

Try this molecule next: Cc1noc(C)c1CN1CCC(N(C)Cc2noc(C(C)C)n2)C1 (stereo not given)
F

Would you kindly repeat that for Cc1ccccc1N1CCN(C(=O)c2ncc(F)cc2F)C(C)C1 (stereo not given) ?
F

Ok, now CCN(Cc1cccc(C)c1)Cn1nc(C)c2c(C)onc2c1=O
T

Input Cc1cc(C)nc(C2CCN(c3ccncn3)C2)n1 (stereo not given)
F

Can you check CCOC(=O)CNC(=O)NCc1cccn1Cc1cccc(C)c1 next?
T

Continue with CCCN(Cc1ccccc1)Cn1nc(C)c2c(C)onc2c1=O
T

Ok, now Cc1nn(CN(Cc2ccsc2)C2CC2)c(=O)c2noc(C)c12
T

// repeat for COCCN(Cc1ccccn1)C(=O)CC1OCCc2ccccc21 (stereo not given) and report
F

Another: Cc1ccc(N2CCN(c3ccccc3C)CC2C)nn1 (stereo not given)
T

Similarly, CSc1c(CC(=O)O)n(C)c2ccccc12 ?
F

Again, but for COCCN(Cc1ccccn1)C(=O)CC1OCCc2sccc21 (stereo not given)
F

Entry to check: Cc1cccc(CN(Cn2nc(C)c3c(C)onc3c2=O)C2CC2)c1
F

Likewise for COc1cccc(Nc2nc(C3CCCNC3)c3ccccn23)c1 (stereo not given) ?
F

What do you have for Nc1nc(C2CCN(C(=O)c3cnco3)CC2)cs1 ?
F

Same question, Cc1ccccc1N1CCN(c2ccncn2)C(C)C1 (stereo not given) this time
T

----------
Let's look at some compounds and their measured INHIBITION.
Test system: Plasmodium berghei
RUN DESCRIPTION: Screen against P. berghei liver stage (PbLuc), transformed with Luciferase, at 10uM
Type: functional, HepG2
STUDY CONDITIONS: tested at 10 uM
The campaign covered roughly 69,000 compounds. About 8,600 (12%) showed an effect of 50% or more. Shown is part of a subset that was picked to be rich in strong results.
Note: unit % is implicit; provide only the numeric part.

Would you please look over these solved cases?
Cn1cc(C2CCCN2C(=O)CCc2cnn(-c3ccccc3)c2)cn1 (centres undefined)
5.03
CCN1CCCC1CNC(=O)Cc1c(C)n[nH]c1-c1ccc(F)cc1 (centres undefined)
38.8

Would you kindly share the measured INHIBITION for COc1ccc(C2CCCN2Cc2cnn(C)c2)cc1 (centres undefined) ?
34.5

Could you do the same for Cc1cc(C)c2c(NCc3nncn3C3CCCCC3)ncnc2n1 , please?
-41.4

Cc1cccc(CN2C(=O)CCC23CCN(c2ncc(F)cn2)CC3)n1 ?
-26.8

Another compound to look at: CC(C)Nc1nc2c(s1)C(=O)CN(C(=O)NCCc1ccccc1)C2
-7.79

----------
Test system: Plasmodium berghei
RUN DESCRIPTION: Screen against P. berghei liver stage (PbLuc), transformed with Luciferase, at 10uM
Format: functional, HepG2
STUDY CONDITIONS: tested at 10 uM
The whole screen tested about 69,000 compounds, of which about 8,600 (12%) showed an effect of 50% or more. This excerpt belongs to a sample that is enriched for strong results.
INHIBITION listing for selected molecules.
The answer consists of two parts: a number and, after it, its unit.

CC(C)CNC(=O)CN1C=Nc2ccccc2S1(=O)=O
56.1%

Find the measured INHIBITION: item CCc1ccc(CNC(=O)c2ccc(N3CCOC3=O)cc2)s1 , target or system Plasmodium berghei.
78.2%

Param item: Cc1ccc(CNC(=O)CN2C=Nc3ccccc3S2(=O)=O)s1
22.3%

Record: Cc1ccsc1CNC(=O)c1ccc2c(c1)CCC(=O)N2
-20.8%

Now consider O=C1COc2cc(C(=O)NCc3ccc(Cl)s3)ccc2N1 .
16.8%

Quick one: Cc1ccsc1CNC(=O)c1ccc(N2CCNC2=O)cc1
25.2%

----------
Tested on: Plasmodium berghei
RUN DESCRIPTION: Screen against P. berghei liver stage (PbLuc), transformed with Luciferase, at 10uM
Type: functional, HepG2
STUDY CONDITIONS: tested at 10 uM
About 8,600 (12%) of roughly 69,000 compounds showed an effect of 50% or more. The list comes from a sample in which strong results are over-represented; it also holds close analogues and randomly drawn compounds.
Listed below: INHIBITION values for each entry.
API: value field is a number in %; no unit string.

COC(=O)CC(NC(=O)c1ccccc1OC)c1cccs1 (stereo unspecified)
40
COC(=O)CC(NC(=O)c1cccc(N2CCCC2=O)c1)C(=O)OC (stereo unspecified)
2.55
Cc1cc(SC(C)(C)C)ccc1NC(C)C(=O)NC(N)=O (stereo unspecified)
65.7
Cc1cc(SC(C)(C)C)ccc1NCC(=O)NC(N)=O
32
CCC(C)C(=O)NCc1cccc(N2CCCCC2=O)c1 (stereo unspecified)
11.6

Please find the next compound below.
Look up INHIBITION: COC(=O)CC(NC(=O)c1cccc(CS(C)(=O)=O)c1)c1cccs1 (stereo unspecified)
71.2

----------
System: Plasmodium berghei
RUN DESCRIPTION: Screen against P. berghei liver stage (PbLuc), transformed with Luciferase, at 10uM
Assay type: functional, HepG2
STUDY CONDITIONS: tested at 10 uM
Screen size: about 69,000 compounds; about 8,600 (12%) showed an effect of 50% or more. The sample as a whole holds a higher share of strong results than the screen did.
OBSERVABLE: INHIBITION (%)
Numeric answer only, unit % assumed.

CN(C)c1ccc(CN(CC2CCCO2)C(=O)c2csnn2)cc1 (stereo not given)
11.8

Returns the measured INHIBITION for the input compound. Input: Cn1cnc2cc(C(=O)N3CCN(CCO)[C@@H]4CS(=O)(=O)C[C@@H]43)ccc21
73.6

Further, for CN(C)c1cc(CNC(=O)c2cccnc2O)ccn1 ?
9.64

Also check COCCNC(=O)Nc1cccc2c1CCN(S(C)(=O)=O)C2
65.4

Quick one: CCN1CCN(C(=O)c2ccc3c(c2)NC(=O)CN3)[C@H]2CS(=O)(=O)C[C@H]21
73

O=C(c1ccc2nccnc2c1)N1CCN(CCO)[C@@H]2CS(=O)(=O)C[C@@H]21 ?
41.5

Same thing, different compound: CCCN1CCN(C(=O)c2ccc3nc(C)oc3c2)[C@H]2CS(=O)(=O)C[C@H]21
33

Please give the result for Cc1nnc(N2CCO[C@H]3[C@@H](OCc4ccccn4)CC[C@@H]32)s1 too.
11.4

Another compound to check: CCS(=O)(=O)N1CCc2c(cccc2NCc2ncc[nH]2)C1
27.6

CCS(=O)(=O)N1CCc2c(cccc2NC(=O)NCCO)C1 ?
50.8
